system: T1, Biotin-huCGRPaSA (human, not fully specified; biotin (position not given))
T1 construct: exact construct ('aSA') not explained; also called Biotin CGRPaSA; full-length (1-37) CGRP
T1 peptide: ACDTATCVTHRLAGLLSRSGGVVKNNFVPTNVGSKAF
measurementProtocol: ELISA, supernatant; relative to chimeric C245
Description: Biotin CGRPaSA was diluted with PBS (Hyclone) to 1.0 μg/mL, and the dilution was added to a microplate at 100 μL/well. The plate was let stand in an incubator at 37° C. and coated for 90 min and then washed, and 2% BSA was added to the plate at 200 μL/well. […] Finally, a 2 M hydrochloric acid solution was added at 100 μL/well to stop the reaction while avoiding bubbles, and the plates were read on a microplate reader within 10 min (wavelength: 450/620 nm).
# binarize Relative binding activity, %: threshold 80% inclusive, high side 1.0, low side 0.0

Observe how each entry below is paired with its result.
binder	cat
hu70 (antibody, V domains shown, 1F5 HC-4/1F5 LC1-1) VH: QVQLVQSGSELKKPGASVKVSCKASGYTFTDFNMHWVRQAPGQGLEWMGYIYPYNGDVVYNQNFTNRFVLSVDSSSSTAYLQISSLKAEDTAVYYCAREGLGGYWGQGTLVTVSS VL: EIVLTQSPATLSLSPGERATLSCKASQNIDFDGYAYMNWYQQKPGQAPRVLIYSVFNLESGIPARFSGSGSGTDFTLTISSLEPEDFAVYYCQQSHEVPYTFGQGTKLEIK	1.0
hu201 (antibody, V domains shown, 3H10 HC-1/1F5 LC1-2) VH: QVQLVQSGAEVKKPGASVKVSCKASGYTFTDYNMHWVRQAPGQGLEWMGYIYPYNGHTVYNQKFRNRVTMTVDTSSSTAYMELRSLRSDDTAVYYCAKEGLGGYWGQGTLVTVSS VL: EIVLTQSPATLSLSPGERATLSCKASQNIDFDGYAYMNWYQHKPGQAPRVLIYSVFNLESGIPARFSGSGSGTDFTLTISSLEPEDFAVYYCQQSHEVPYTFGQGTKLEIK	0.0
hu112 (antibody, V domains shown, 2B8 HC1-1/1F5 LC1-4) VH: QVQLVQSGAEVKKPGASVKVSCKASGYTFTDYNMHWVRQAPGQGLEWMGNIYPYNGGTVYNQKFNNRVTLTVDTSSSTAYMELSRLRSDDTAVYYCAREGLGGYWGQGTLVTVSS VL: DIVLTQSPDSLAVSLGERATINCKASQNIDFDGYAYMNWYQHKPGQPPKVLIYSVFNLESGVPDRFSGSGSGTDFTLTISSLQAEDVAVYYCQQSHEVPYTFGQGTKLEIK	0.0

# ---- query binder ----
Input: Quick check, Relative binding activity, % >= 80%? hu111 (antibody, V domains shown, 2B8 HC1-1/1F5 LC1-3) VH: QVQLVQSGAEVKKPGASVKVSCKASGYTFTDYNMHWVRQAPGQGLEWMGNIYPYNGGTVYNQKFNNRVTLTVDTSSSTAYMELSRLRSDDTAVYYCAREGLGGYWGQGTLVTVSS VL: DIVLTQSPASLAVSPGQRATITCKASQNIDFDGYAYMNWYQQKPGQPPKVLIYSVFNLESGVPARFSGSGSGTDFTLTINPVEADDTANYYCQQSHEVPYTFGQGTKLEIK
Output: 0.0
